System: E. multilocularis metacestode vesicles
Protocol Notes: Metacestode vesicle viability assay (ATP, CellTiter-Glo)
Format: cell-based, Echinococcus multilocularis
Experimental Conditions: overview screen, 10 μM, singlets, 12 days, relative to DMSO control
Entries and their Viability d12 (relative viability) values follow.
Readout: Viability d12 (relative viability)

INSERT INTO assay_data (structure_string, readout, value_observed) VALUES
  ('Cc1c(N)cccc1Cn1ccc(OCCc2cccs2)cc1=O', 'Viability d12 (relative viability)', '70.6385%'),
  ('CCC(CC)[C@H](NC(C)=O)[C@@H]1[C@H](O)[C@@H](C(=O)O)C[C@H]1NC(=N)N', 'Viability d12 (relative viability)', '73.923%'),
  ('Nc1nnnn1CCOc1c2[nH]c3ccc(Cl)cc3c2cc2c1[nH]c1ccc(Cl)cc12', 'Viability d12 (relative viability)', '104.455%'),
  ('O=C(Nc1cccc(C2=NCCN2)c1)c1ccc(-c2ccc(C(=O)Nc3cccc(C4=NCCN4)c3)cc2)cc1', 'Viability d12 (relative viability)', '3.841%'),
  ('COc1ccc(SCC(=O)N2c3ccccc3Sc3ccccc32)cc1', 'Viability d12 (relative viability)', '50.7662%'),
  ('COc1ccccc1NC(=O)c1ccccc1Sc1ccc([N+](=O)[O-])cc1', 'Viability d12 (relative viability)', '125.738%'),
  ('Cc1c(F)cccc1NC(=O)Nc1ccc(Cl)c(S(=O)(=O)[C@H]2CCCNC2)c1O', 'Viability d12 (relative viability)', '88.9358%'),
  ('Nc1nc(F)nc2c1ncn2[C@@H]1O[C@H](CO)[C@@H](O)[C@@H]1O', 'Viability d12 (relative viability)', '168.919%'),
  ('C[C@@H](O)[C@H](N)C(=O)NS(=O)(=O)c1cccc(-c2ccc3[nH]ncc3c2)c1.Cl.Cl', 'Viability d12 (relative viability)', '90.2603%'),
  ('Cc1ccc(N2CCC(CCOc3ccc(S(C)(=O)=O)cc3)CC2)nn1', 'Viability d12 (relative viability)', '249.705%'),
  ('O=C(NCc1ccc2c3c(cccc13)C(=O)N2)c1cccs1', 'Viability d12 (relative viability)', '18.2024%'),
  ('Nc1nc(=O)c(Br)c(-c2ccccc2)[nH]1', 'Viability d12 (relative viability)', '20.6612%'),
  ('c1ccc(-c2nnc3c4ccccc4c(N4CCNCC4)nn23)cc1', 'Viability d12 (relative viability)', '63.6248%'),
  ('CC(C)Oc1cccc(NC(=O)c2ccccc2C(F)(F)F)c1', 'Viability d12 (relative viability)', '77.2348%'),
  ('CCNC(=O)Nc1cn2c(-c3ncc(CC)cn3)cc(-c3cccnc3)cc2n1', 'Viability d12 (relative viability)', '142.751%');
